- experiment-description: Half life in rat liver microsomes at 0.5 uM by LC-MS/MS analysis in presence of NADPH
- Type: ADME
measure-name: half-life at 0.5 µM (h)
Please reply with the bare figure in h and do not write the unit itself.

C=C(C)[C@@H]1CC[C@]2(CO)CC[C@]3(C)[C@H](CC[C@@H]4[C@@]5(C)CC=C(c6ccc(C(=O)O)cc6)C(C)(C)[C@@H]5CC[C@]43C)[C@@H]12 :: 2

Entry C=C(C)[C@@H]1CC[C@]2(C(=O)O)CC[C@]3(C)[C@H](CC[C@@H]4[C@@]5(C)CC=C(c6ccc(C(=O)O)cc6)C(C)(C)[C@@H]5CC[C@]43C)[C@@H]12 , half-life at 0.5 µM reported as 2

* * *

// clearance lookup, one value per entry
- experiment-description: Clearance in cannula implanted rat at 1 mg/kg, iv by LC-MS/MS
- Format: ADME, organism-based
- applied-conditions: in vivo
Please reply with the bare figure in mL/min/kg and do not write the unit itself.

Use these answered entries as a reference point.
C=C(C)[C@@H]1CC[C@]2(C(=O)O)CC[C@]3(C)[C@H](CC[C@@H]4[C@@]5(C)CC[C@H](OC(=O)CC(C)(C)C(=O)O)C(C)(C)[C@@H]5CC[C@]43C)[C@@H]12 [BEVIRIMAT] :: 4
C=C(C)[C@@H]1CC[C@]2(C(=O)O)CC[C@]3(C)[C@H](CC[C@@H]4[C@@]5(C)CC=C(c6ccc(C(=O)O)cc6)C(C)(C)[C@@H]5CC[C@]43C)[C@@H]12 :: 1

Entry C=C(C)[C@@H]1CC[C@]2(CO)CC[C@]3(C)[C@H](CC[C@@H]4[C@@]5(C)CC=C(c6ccc(C(=O)O)cc6)C(C)(C)[C@@H]5CC[C@]43C)[C@@H]12 , clearance reported as 2.1

* * *

- experiment-description: Protein binding of the compound in plasma (unknown origin)
- Format: ADME, cell-free
- applied-conditions: read-out: PB
measure-name: fraction unbound

Entry C=C(C)[C@@H]1CC[C@]2(C(=O)O)CC[C@]3(C)[C@H](CC[C@@H]4[C@@]5(C)CC[C@H](OC(=O)CC(C)(C)C(=O)O)C(C)(C)[C@@H]5CC[C@]43C)[C@@H]12 , fraction unbound reported as < 0.001

* * *

// Vd lookup, one value per entry
- experiment-description: Volume of distribution in steady state in cannula implanted rat at 1 mg/kg, iv by LC-MS/MS
- Type: ADME, organism-based
- applied-conditions: in vivo, read-out: Vdss
Please reply with the bare figure in L/kg and do not write the unit itself.

C=C(C)[C@@H]1CC[C@]2(CO)CC[C@]3(C)[C@H](CC[C@@H]4[C@@]5(C)CC=C(c6ccc(C(=O)O)cc6)C(C)(C)[C@@H]5CC[C@]43C)[C@@H]12 :: 0.5

Please examine the following record next.
Entry C=C(C)[C@@H]1CC[C@]2(C(=O)O)CC[C@]3(C)[C@H](CC[C@@H]4[C@@]5(C)CC=C(c6ccc(C(=O)O)cc6)C(C)(C)[C@@H]5CC[C@]43C)[C@@H]12 , Vd reported as 0.2

* * *

// CC50 lookup, one value per entry
- experiment-description: Cytotoxicity against human MT2 cells assessed as cell viability by redox dye assay
- Type: cell-based
Please reply with the bare figure in µM and do not write the unit itself.

C=C(C)[C@@H]1CC[C@]2(C(=O)O)CC[C@]3(C)[C@H](CC[C@@H]4[C@@]5(C)CC=C(c6ccc(C(=O)O)s6)C(C)(C)[C@@H]5CC[C@]43C)[C@@H]12 :: 0.79

Entry C=C(C)[C@@H]1CC[C@]2(C(=O)O)CC[C@]3(C)[C@H](CC[C@@H]4[C@@]5(C)CC=C(c6ccc(S(C)(=O)=O)cc6)C(C)(C)[C@@H]5CC[C@]43C)[C@@H]12 , CC50 reported as 9.72

Entry C=C(C)[C@@H]1CC[C@]2(CO)CC[C@]3(C)[C@H](CC[C@@H]4[C@@]5(C)CC=C(c6ccc(C(=O)O)cc6Cl)C(C)(C)[C@@H]5CC[C@]43C)[C@@H]12 , CC50 reported as 17.3
